Attribution: patent US20250122225A1

Structures can show the parent of a compound that is named as a salt.
Recorded below: Ki, system human α-thrombin (Homo sapiens, UniProt P00734).
observed property: Ki

- compound: "O=C(NCc1cc2cnccc2[nH]1)[C@@H]1CCc2c(Cl)nc(NC3CCC3)c(=O)n21 [Compound 100, trifluoroacetate]"
  value reported: "> 25000 nM"
- compound: "Cc1cc(F)cc(CNc2ncc3n(c2=O)[C@H](C(=O)N[C@H](C)c2ccc(N)nc2)CC3)c1 [Compound 191, trifluoroacetate]"
  value reported: "2500 to 10000 nM"
- compound: "Cc1cccc([C@H](C)Nc2ncc3n(c2=O)[C@H](C(=O)NCc2cc4cnccc4[nH]2)CC3)c1 [Compound 74]"
  value reported: "500 to 2500 nM"
- compound: "Cc1nc(N)ccc1CNC(=O)[C@@H]1CCc2c(Cl)nc(NCc3cccc(CO)c3)c(=O)n21 [Compound 5]"
  value reported: "500 to 2500 nM"
- compound: "Cc1nc(N)ccc1CNC(=O)C1CCc2c(Cl)nc(NCc3cnccn3)c(=O)n21 (stereo not shown) [Compound 149]"
  value reported: "2500 to 10000 nM"
- compound: "Nc1nc2cc(CNC(=O)[C@@H]3CCc4c(Cl)nc(NCc5ccccc5)c(=O)n43)ccc2[nH]1 [Compound 29, trifluoroacetate]"
  value reported: "10000 to 25000 nM"
- compound: "Cc1nc(N)ccc1CNC(=O)[C@@H]1CCc2c(Cl)nc(NCc3cccc(C(F)F)c3)c(=O)n21 [Compound 16]"
  value reported: "2500 to 10000 nM"

* * *

Recorded Ki values for a group of molecules are listed next.
# study system: MASP-2 (CCP1-CCP2-SP) (Homo sapiens, UniProt O00187)
# Sequence (O00187 445-686 limits assumed): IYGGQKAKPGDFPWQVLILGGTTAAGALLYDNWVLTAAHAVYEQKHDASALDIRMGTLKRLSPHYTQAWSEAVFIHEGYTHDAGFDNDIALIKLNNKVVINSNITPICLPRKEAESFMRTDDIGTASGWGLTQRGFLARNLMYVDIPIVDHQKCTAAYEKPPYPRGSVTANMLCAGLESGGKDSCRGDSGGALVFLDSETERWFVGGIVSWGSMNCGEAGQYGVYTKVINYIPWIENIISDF
# Sequence (O00187 287-444 partner limits assumed): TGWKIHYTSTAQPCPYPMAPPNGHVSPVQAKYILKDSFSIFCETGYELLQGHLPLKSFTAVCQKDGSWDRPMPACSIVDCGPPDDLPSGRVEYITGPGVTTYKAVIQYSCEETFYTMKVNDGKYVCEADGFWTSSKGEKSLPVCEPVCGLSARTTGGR
Counter-ions that a name gives are not always drawn.

- molecule: "Cc1cc(F)cc(CNc2nc(Cl)c3n(c2=O)[C@H](C(=O)NCc2ccc(N)nc2C)CC3)c1 [Compound 212, trifluoroacetate]"
  Ki: "< 500 nM"
- molecule: "Cc1cc(C)cc(CNc2ncc3n(c2=O)[C@H](C(=O)NCc2cc4cnc(C)cc4[nH]2)CC32CC2)c1 [Compound 124, trifluoroacetate]"
  Ki: "< 500 nM"
- molecule: "Cc1cc(C)cc(CNc2ncc3n(c2=O)[C@H](C(=O)NCc2ccc(N)nc2)CC3)c1"
  Ki: "< 500 nM"
- molecule: "Cc1ccc(F)c(CNc2nc(C#N)c3n(c2=O)[C@H](C(=O)NCc2ccc(N)nc2C)CC3)c1 [Compound 223, trifluoroacetate]"
  Ki: "< 500 nM"

* * *

Where a name gives a salt, the structure may show the parent alone.
Recorded below: Ki, system human α-thrombin (Homo sapiens, UniProt P00734).

- compound: "O=C(NCc1cc2c(s1)CNC2)[C@@H]1CCc2cnc(N[C@@H](c3ccccc3)C3CCC3)c(=O)n21"
  Ki: "< 500 nM"
- compound: "C[C@H](NC(=O)[C@@H]1CCc2cnc(N[C@@H](c3ccccc3)C3CC3)c(=O)n21)c1cc2c(s1)CNC2 [Compound 273, trifluoroacetate]"
  Ki: "> 25000 nM"
- compound: "Cc1cc(C)cc(CNc2ncc3n(c2=O)[C@H](C(=O)NCc2cc4cnccc4[nH]2)CC3)c1 [Compound 97, trifluoroacetate]"
  Ki: "500 to 2500 nM"
- compound: "O=C(NCc1cc2cnccc2[nH]1)[C@@H]1CCc2cnc(N3CC(c4ccccc4)C3)c(=O)n21"
  Ki: "10000 to 25000 nM"
- compound: "COc1cc(F)cc(CNc2ncc3n(c2=O)[C@H](C(=O)N[C@H](C)c2ccc(N)nc2)CC3)c1 [Compound 200, trifluoroacetate]"
  Ki: "2500 to 10000 nM"
- compound: "Cc1cc(C)cc(CNc2ncc3n(c2=O)[C@H](C(=O)NCc2cc4cnccc4[nH]2)CC32CC2)c1 [Compound 123, trifluoroacetate]"
  Ki: "500 to 2500 nM"
- compound: "O=C(NCc1cc2c(s1)CNC2)[C@@H]1CCc2cnc(N[C@@H]3CCc4ccccc43)c(=O)n21"
  Ki: "500 to 2500 nM"
